Parameter Kd: see the listing below.
# measured.on: BRD4 bromodomains (Homo sapiens)
# Construct: fused on or other part: T7 phage capsid protein (phage-display fusion; the phage DNA is read out by qPCR)
# assay.notes: BROMOscan bromodomain competition binding assay (DiscoveRx)
# condition.set: Kd from 11 compound concentrations ranging from 0 to 10 μM, read-out: BROMOscan Relative Activity
# Description: Bromodomain assays were conducted to measure interactions between certain compounds and bromodomains. The assays were conducted according to BROMOscan protocol from Discover Rx. Briefly, BRD4 bromodomains expressed as a fusion capsid protein of T7 phage were bound to acetylated peptide ligand on a solid phase and competition bindings were performed. […] The bromodomain concentration in the eluates was measured by qPCR. […]
measure.name: Kd

{"columns": ["molecule", "assay.value"],
 "data": [
  ["Cc1ccc(NC(=O)c2nc(NCc3cccc(Cl)c3)c3cc(-c4c(C)noc4C)ccc3n2)cn1 [Example 219]", "500 to 5000 nM"],
  ["CNC(=O)Cn1cc(-c2nc(NC3(c4cccc(Cl)c4)CC3)c3cc(-c4c(C)noc4C)ccc3n2)cn1 [Example 181]", "< 500 nM"],
  ["Cc1noc(C)c1-c1ccc2nc(C(=O)NCC3CN(C)C3)cc(NCc3cccc(Cl)c3)c2c1 [Example 231]", "< 500 nM"],
  ["CCNC(=O)N1CCN(c2nc(N3CCOC[C@@H]3c3ccccc3)c3cc(-c4c(C)noc4C)ccc3n2)CC1 [Example 299]", "< 500 nM"],
  ["Cc1noc(C)c1-c1ccc2nc(N3CCC(CCO)CC3)nc(NCc3cccc(Cl)c3)c2c1 [Example 30]", "500 to 5000 nM"],
  ["Cc1noc(C)c1-c1ccc2nc(-c3cnn(CCO)c3)nc(N3CCOC[C@@H]3c3ccccc3)c2c1 [Example 306]", "< 500 nM"],
  ["Cc1noc(C)c1-c1ccc2nc(-c3cnn(CC(C)(C)O)c3)nc(N3CCOC[C@@H]3c3ccccc3)c2c1 [Example 262]", "< 500 nM"],
  ["Cc1noc(C)c1-c1ccc2nc(C(=O)N3CCc4[nH]ncc4C3)cc(NCc3cccc(Cl)c3)c2c1 [Example 288]", "500 to 5000 nM"],
  ["Cc1noc(C)c1-c1ccc2nc(N3CCN(CC(=O)N(C)C)CC3)nc(N3CCOC[C@@H]3c3ccccc3)c2c1 [Example 303]", "< 500 nM"],
  ["Cc1noc(C)c1-c1ccc2nc(N3CCN(CC(N)=O)CC3)nc(N3CCOC[C@@H]3c3ccccc3)c2c1 [Example 307]", "< 500 nM"],
  ["Cc1noc(C)c1-c1ccc2nc(N3CCN(CCN(C)C)CC3)nc(N3CCC(C(=O)O)CC3)c2c1 [Example 254]", "500 to 5000 nM"],
  ["Cc1noc(C)c1-c1ccc2nc(C(=O)NC3CCN(S(C)(=O)=O)CC3)nc(NCc3cccc(Cl)c3)c2c1 [Example 201]", "< 500 nM"],
  ["CN(C)CCN1CCN(c2nc(NCc3cccc(Cl)c3)c3cc(-c4cnc(O)c(F)c4)ccc3n2)CC1 [Example 86]", "500 to 5000 nM"],
  ["Cc1noc(C)c1-c1ccc2nc(-c3ccc(CO)nc3)nc(NCc3cccc(Cl)c3)c2c1 [Example 63]", "< 500 nM"],
  ["Cc1noc(C)c1-c1ccc2nc(C(=O)NCc3ncc[nH]3)nc(NCc3cccc(Cl)c3)c2c1 [Example 177]", "< 500 nM"],
  ["Cc1noc(C)c1-c1ccc2nc(-c3cnn(C4COC4)c3)nc(NCc3cccc(Cl)c3)c2c1 [Example 61]", "< 500 nM"],
  ["Cc1noc(C)c1-c1ccc2nc(C(=O)NCc3ccc(Cl)nc3)nc(NCc3cccc(Cl)c3)c2c1 [Example 203]", "< 500 nM"],
  ["Cc1noc(C)c1-c1ccc2nc(-n3cc(CCO)cn3)nc(NCc3cccc(Cl)c3)c2c1 [Example 42]", "< 500 nM"],
  ["Cc1noc(C)c1-c1ccc2nc(N3CCC(CCN(C)C)CC3)nc(NCc3cccc(Cl)c3)c2c1 [Example 34]", "< 500 nM"],
  ["Cc1noc(C)c1-c1ccc2nc(N3CCN(S(C)(=O)=O)CC3)nc(NCc3cccc(Cl)c3)c2c1 [Example 155]", "< 500 nM"],
  ["Cc1cc(NC(=O)c2nc(NCc3cccc(Cl)c3)c3cc(-c4c(C)noc4C)ccc3n2)ccn1 [Example 218]", "500 to 5000 nM"],
  ["Cc1noc(C)c1-c1ccc2nc(C(=O)NCc3cncn3C)nc(NCc3cccc(Cl)c3)c2c1 [Example 183]", "< 500 nM"],
  ["Cc1noc(C)c1-c1ccc2nc(C(=O)Nc3ccc(Cl)nc3)nc(NCc3cccc(Cl)c3)c2c1 [Example 222]", "> 5000 nM"],
  ["Cn1cc(-c2ccc3nc(N4CCN(CCO)CC4)nc(NCc4cncc(Cl)c4)c3c2)ccc1=O [Example 126]", "< 500 nM"],
  ["Cc1noc(C)c1-c1ccc2nc(C(=O)NC3CCOCC3)nc(NC3(c4cccc(Cl)c4)CC3)c2c1 [Example 247]", "< 500 nM"],
  ["Cc1noc(C)c1-c1ccc2nc(N3CCN(CCC(C)C)CC3)nc(NCc3cccc(Cl)c3)c2c1 [Example 21]", "500 to 5000 nM"],
  ["Cc1noc(C)c1-c1ccc2nc(-c3cnn(CC(C)(C)O)c3)nc(NCc3cccc(Cl)c3)c2c1 [Example 56]", "< 500 nM"],
  ["CN(C)C(=O)CN1CCN(c2nc(NCc3cccc(Cl)c3)c3cc(-c4ccc(=O)n(C)c4)ccc3n2)CC1 [Example 110]", "< 500 nM"],
  ["CC(=O)N1CCN(c2nc(NCc3cncc(Cl)c3)c3cc(-c4c(C)noc4C)ccc3n2)CC1 [Example 195]", "< 500 nM"],
  ["Cc1noc(C)c1-c1ccc2c(NCc3cccc(Cl)c3)nc(N3CCN(CCO)CC3)nc2c1 [Example 40]", "500 to 5000 nM"]
]}
